Here, each record is paired with measured viability at 72 h data.
- Method: Cytotoxicity assay (CCK-8, 72 h) in Vero E6 cells
- Type: cell-based, African green monkey
- Condition notes: African green monkey, Vero E6 cells, Vero; Concentration 0.37037; two replicates; read-out: cell viability (% of DMSO control)

# Molecule, viability at 72 h
measured = [
    ("CCN(CC)CCCC(C)Nc1ccnc2cc(Cl)ccc12 (centres unmarked)", "80.1%"),
    ("CCC(CC)COC(=O)[C@H](C)N[P@](=O)(OC[C@H]1O[C@@](C#N)(c2ccc3c(N)ncnn23)[C@H](O)[C@@H]1O)Oc1ccccc1", "80.3%"),
]

* * *

- Method: in vitro
- Condition notes: human, cell viability (% of DMSO control), Concentration 0.0137174
Here, each record is paired with measured viability data.

# Molecule, viability, %
rows = [
    ("CCC(CC)COC(=O)[C@H](C)N[P@](=O)(OC[C@H]1O[C@@](C#N)(c2ccc3c(N)ncnn23)[C@H](O)[C@@H]1O)Oc1ccccc1", 102),
    ("CCN(CC)CCCC(C)Nc1ccnc2cc(Cl)ccc12 (centres unmarked)", 103),
]

* * *

- System: A549-hACE2 cells
- Condition notes: human

# Smi, CC50 [µM]
records = [
    ("CCC(CC)COC(=O)[C@H](C)N[P@](=O)(OC[C@H]1O[C@@](C#N)(c2ccc3c(N)ncnn23)[C@H](O)[C@@H]1O)Oc1ccccc1", 32.7),
]

* * *

- Method: in vitro
- Condition notes: human, CC50 (µM) Replicate 1

# Compound, CC50
measured = [
    ("COC(=O)N[C@H](C(=O)N1CC2(CC2)C[C@H]1c1ncc(-c2ccc3c(c2)C(F)(F)c2cc(-c4ccc5nc([C@@H]6[C@H]7CC[C@H](C7)N6C(=O)[C@@H](NC(=O)OC)C(C)C)[nH]c5c4)ccc2-3)[nH]1)C(C)C [Ledapisvir]", "> 50 µM"),
    ("O=C1Nc2ccc(Cl)cc2[C@@](C#CC2CC2)(C(F)(F)F)O1 [Efavirenz]", "45.1 µM"),
    ("CC(C)(C)NC(=O)[C@@H]1C[C@@H]2CCCC[C@@H]2CN1C[C@@H](O)[C@H](Cc1ccccc1)NC(=O)[C@H](CC(N)=O)NC(=O)c1ccc2ccccc2n1 [Saquinavir]", "43.4 µM"),
    ("CCC[C@@]1(CCc2ccccc2)CC(O)=C([C@H](CC)c2cccc(NS(=O)(=O)c3ccc(C(F)(F)F)cn3)c2)C(=O)O1 [Tipranavir]", "28.8 µM"),
    ("CC(C)(C)NC(=O)[C@@H]1CN(Cc2cccnc2)CCN1C[C@@H](O)C[C@@H](Cc1ccccc1)C(=O)N[C@H]1c2ccccc2C[C@H]1O [Indinavir]", "> 50 µM"),
    ("C=C1[C@H](CO)[C@@H](O)C[C@@H]1n1cnc2c(=O)[nH]c(N)nc21 [Entecavir]", "> 50 µM"),
    ("CC(C)OC(=O)[C@H](C)N[P@](=O)(CO[C@H](C)Cn1cnc2c(N)ncnc21)Oc1ccccc1 [Tenofovir alafenamide (TAF), Tenofovir alafenamide]", "> 50 µM"),
    ("CC(C)OC(=O)[C@H](C)N[P@](=O)(OC[C@H]1O[C@@](C#N)(c2ccc3c(N)ncnn23)[C@](C)(O)[C@@H]1OC(=O)C(C)C)Oc1ccccc1 [GS-6620]", "> 50 µM"),
    ("NC(=O)c1ncn([C@@H]2O[C@H](CO)[C@@H](O)[C@H]2O)n1 [Ribavirin]", "> 50 µM"),
    ("Nc1nc(=O)n([C@@H]2CS[C@H](CO)O2)cc1F [Emtricitabine (FTC), Emtricitabine]", "> 50 µM"),
    ("CCN(CC)CCCC(C)Nc1ccnc2cc(Cl)ccc12 (stereo not drawn) [Chloroquine]", "> 50 µM"),
    ("Nc1ccn(C[C@@H](CO)OCP(=O)(O)O)c(=O)n1 [Cidofovir]", "> 50 µM"),
    ("CC(C)CN(C[C@@H](O)[C@H](Cc1ccccc1)NC(=O)O[C@H]1CCOC1)S(=O)(=O)c1ccc(N)cc1 [Amprenavir]", "> 50 µM"),
    ("Fc1ccccc1-c1nc2ccn(Cc3ccc(-c4ccc(C(F)(F)F)cc4C(F)(F)F)nn3)cc-2n1 [Tegobuvir]", "20 µM"),
    ("NC(=O)c1nc(F)c[nH]c1=O [Favipiravir (T-705), Favipiravir]", "> 50 µM"),
    ("CC(C)c1nc(CN(C)C(=O)N[C@@H](CCN2CCOCC2)C(=O)N[C@H](CC[C@H](Cc2ccccc2)NC(=O)OCc2cncs2)Cc2ccccc2)cs1 [Cobicistat]", "45.6 µM"),
    ("CCC(CC)O[C@@H]1C=C(C(=O)O)C[C@H](N)[C@H]1NC(C)=O [Oseltamivir carboxylate]", "> 50 µM"),
    ("CC1=CC[C@H](C(=O)N(c2cc(C#CC(C)(C)C)sc2C(=O)O)[C@H]2CC[C@](O)(CO[C@H]3CCOC3)CC2)CC1 [Radalbuvir]", "> 50 µM"),
    ("Cc1c(O)cccc1C(=O)N[C@@H](CSc1ccccc1)[C@H](O)CN1C[C@H]2CCCC[C@H]2C[C@H]1C(=O)NC(C)(C)C [Nelfinavir]", "11.1 µM"),
    ("COc1ccc2c(O[C@@H]3C[C@H]4C(=O)N[C@]5(P(=O)(O)Cc6c(F)cccc6F)C[C@H]5CCCCCCC[C@H](NC(=O)OC5CCCC5)C(=O)N4C3)cc(-c3csc(NC(C)C)n3)nc2c1Cl [GS-9256]", "39.5 µM"),
    ("CC(C)CN(C[C@@H](O)[C@H](Cc1ccccc1)NC(=O)O[C@H]1CO[C@H]2OCC[C@H]21)S(=O)(=O)c1ccc(N)cc1 [Darunavir]", "> 50 µM"),
    ("Cc1cc(/C=C/C#N)cc(C)c1Nc1ccnc(Nc2ccc(C#N)cc2)n1 [Rilpivirine]", "13.5 µM"),
    ("O=C(Nc1ccc([N+](=O)[O-])cc1Cl)c1cc(Cl)ccc1O [Niclosamide]", "1.44 µM"),
    ("CC(C)OC(=O)[C@H](C)N[P@](=O)(OC[C@H]1O[C@@H](n2ccc(=O)[nH]c2=O)[C@](C)(F)[C@@H]1O)Oc1ccccc1 [Sofosbuvir]", "> 50 µM"),
    ("Nc1ccn([C@@H]2O[C@@](CO)(CCl)[C@@H](O)[C@H]2F)c(=O)n1 [ALS-8112]", "> 50 µM"),
    ("CC#CC(=O)N1CC[C@@H](n2c(=O)n(-c3ccc(Oc4ccccc4)cc3)c3c(N)ncnc32)C1 [Tirabrutinib]", "> 50 µM"),
    ("CCOc1nc(N)nc2c1ncn2[C@@H]1O[C@@H]2COP(=O)(OC(C)C)O[C@H]2[C@@]1(C)F (stereo partly drawn) [PSI-352938]", "> 50 µM"),
]

* * *

- Method: in vitro
- Condition notes: human, cell viability (% of DMSO control), Concentration 0.00152416
Reported metric: viability

# Compound, Result
data = [
    ("CCN(CC)CCCC(C)Nc1ccnc2cc(Cl)ccc12 (centres unmarked)", "105%"),
    ("CCC(CC)COC(=O)[C@H](C)N[P@](=O)(OC[C@H]1O[C@@](C#N)(c2ccc3c(N)ncnn23)[C@H](O)[C@@H]1O)Oc1ccccc1", "100%"),
]

* * *

- Tested on: SARS-CoV-2-Nluc
- Method: microbe, parasite or virus in culture
- Format: cell-based
- Condition notes: Severe acute respiratory syndrome coronavirus 2, read-out: projected protein adjusted potency (paEC50)
pEC50: −log10 of the molar value.

# Smi, pEC50
measured = [
    ("Cc1c(O)cccc1C(=O)N[C@@H](CSc1ccccc1)[C@H](O)CN1C[C@H]2CCCC[C@H]2C[C@H]1C(=O)NC(C)(C)C", "~4.52"),
]

* * *

- System: SARS-CoV-2-Nluc
- Method: microbe, parasite or virus in culture
- Format: cell-based
- Condition notes: Severe acute respiratory syndrome coronavirus 2, read-out: EC50 (µM) Replicate 1
Reported metric: EC50

# Compound, Target, Result
rows = [
    ("CCOc1nc(N)nc2c1ncn2[C@@H]1O[C@@H]2COP(=O)(OC(C)C)O[C@H]2[C@@]1(C)F (stereo partly shown)", "SARS-CoV-2-Nluc", "> 10 µM"),
    ("Cc1cn2nc([C@@H]3CCCCN3C(=O)c3cc(Cl)ccc3NS(C)(=O)=O)cc2nc1N1CC[C@H](N)C1", "SARS-CoV-2-Nluc", "3.01 µM"),
    ("CC(C)(C)NC(=O)[C@@H]1CN(Cc2cccnc2)CCN1C[C@@H](O)C[C@@H](Cc1ccccc1)C(=O)N[C@H]1c2ccccc2C[C@H]1O", "SARS-CoV-2-Nluc", "> 10 µM"),
    ("CCN(CC)CCCC(C)Nc1ccnc2cc(Cl)ccc12 (stereo not shown)", "SARS-CoV-2-Nluc", "1.06 µM"),
    ("Nc1nc(=O)n([C@@H]2CS[C@H](CO)O2)cc1F", "SARS-CoV-2-Nluc", "> 10 µM"),
    ("O=C(Nc1ccc([N+](=O)[O-])cc1Cl)c1cc(Cl)ccc1O [Niclosamide]", "SARS-CoV-2-Nluc", "0.95 µM"),
    ("Fc1ccccc1-c1nc2ccn(Cc3ccc(-c4ccc(C(F)(F)F)cc4C(F)(F)F)nn3)cc-2n1", "SARS-CoV-2-Nluc", "> 10 µM"),
    ("CCC(CC)O[C@@H]1C=C(C(=O)O)C[C@H](N)[C@H]1NC(C)=O [Oseltamivir carboxylate]", "SARS-CoV-2-Nluc", "> 10 µM"),
    ("CCC(CC)COC(=O)[C@H](C)N[P@](=O)(OC[C@H]1O[C@@](C#N)(c2ccc3c(N)ncnn23)[C@H](O)[C@@H]1O)Oc1ccccc1", "SARS-CoV-2-Nluc", "0.11 µM"),
    ("COC[C@H]1C[C@@H](c2ncc(-c3ccc4c(c3)COc3cc5c(ccc6nc([C@@H]7CC[C@H](C)N7C(=O)[C@@H](NC(=O)OC)C(C)C)[nH]c65)cc3-4)[nH]2)N(C(=O)[C@H](NC(=O)OC)c2ccccc2)C1", "SARS-CoV-2-Nluc", "> 10 µM"),
    ("COc1ccc2c(O[C@@H]3C[C@H]4C(=O)N[C@]5(P(=O)(O)Cc6c(F)cccc6F)C[C@H]5CCCCCCC[C@H](NC(=O)OC5CCCC5)C(=O)N4C3)cc(-c3csc(NC(C)C)n3)nc2c1Cl", "SARS-CoV-2-Nluc", "> 10 µM"),
    ("CC[C@@H]1C[C@]1(NC(=O)[C@@H]1C[C@@H](Oc2cc(-c3csc(NC(C)C)n3)nc3c(Cl)c(OCCN4CCOCC4)ccc23)CN1C(=O)[C@@H](NC(=O)O[C@@H]1C[C@@H]2C[C@@H]2C1)C(C)(C)C)C(=O)O", "SARS-CoV-2-Nluc", "> 10 µM"),
    ("CC1=CC[C@H](C(=O)N(c2cc(C#CC(C)(C)C)sc2C(=O)O)[C@H]2CC[C@](O)(CO[C@H]3CCOC3)CC2)CC1", "SARS-CoV-2-Nluc", "> 10 µM"),
]

Cited source for all entries: paper PMC7567097
